Target: PAR4 (Homo sapiens, UniProt Q96RI0)
Construct: expressed in transfected cells; host or cells: HEK293 PAR4 Clone 1.2A (BMS Arctic ID 383940)
Sequence (Q96RI0 18-385): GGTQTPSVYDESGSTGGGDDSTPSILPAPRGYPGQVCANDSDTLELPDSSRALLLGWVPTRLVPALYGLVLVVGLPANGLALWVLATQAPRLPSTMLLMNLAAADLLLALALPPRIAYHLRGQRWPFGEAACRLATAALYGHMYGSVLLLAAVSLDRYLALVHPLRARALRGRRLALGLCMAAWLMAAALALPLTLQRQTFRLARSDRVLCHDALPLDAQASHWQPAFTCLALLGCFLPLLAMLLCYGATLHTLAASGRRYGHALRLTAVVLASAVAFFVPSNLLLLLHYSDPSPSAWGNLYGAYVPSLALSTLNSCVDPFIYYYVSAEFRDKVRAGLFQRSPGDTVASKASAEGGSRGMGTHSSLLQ
Assay: PAR4 FLIPR assay (antagonism of agonist peptide-induced calcium mobilization)
Assay type: cell-based
measuredMetric: pIC50
One number for each entry, as −log10 of the molar value.

# example entries with known answers
COc1cnc2c(-c3nc4c(Cl)cc5c(c4s3)OC[C@H](COC(=O)Nc3cnc4c(c3)ncn4C)O5)cc(C)cc2n1 : 9.22
CCOc1ccc(NC(=O)OCC2COc3c(cc(C)c4nc(-c5cc(C)cc6nc(OC)cnc56)sc34)O2)cn1 (stereo not drawn) : 6.82
COc1cnc2c(-c3nc4ccc5c(c4s3)CC(CNC(=O)Oc3ccccc3)O5)cc(C)cc2n1 (stereo not drawn) : 8.08
COc1cnc2c(-c3nc4cc(F)c5c(c4s3)C[C@H](COC(=O)Nc3cccnc3)O5)cc(C)cc2n1 : 9.10
COc1cnc2c(-c3nc4cc(F)c5c(c4s3)C[C@@H](CNC(=O)NC3CC3)O5)cc(C)cc2n1 : 7.30

Consider the following items and state reported pIC50 for each.
1. COc1cnc2c(-c3nc4c(Cl)cc5c(c4s3)C[C@H](COC(=O)Nc3ccc(C)nc3)O5)cc(C)cc2n1 (single isomer, unassigned)
2. COc1cnc2c(-c3nc4ccc5c(c4s3)C[C@@H](CNS(C)(=O)=O)O5)cc(C)cc2n1
3. COc1cnc2c(-c3nc4ccc5c(c4s3)C[C@@H](CNC(=O)OC(C)(C)C)O5)cc(C)cc2n1
4. COc1cnc2c(-c3nc4c(C)cc5c(c4s3)OC[C@H](COC(=O)Nc3cncc(C)c3)O5)cc(C)cc2n1
5. COc1cnc2c(-c3nc4c(C)cc5c(c4s3)OC[C@H](COC(=O)Nc3cnc4c(c3)ncn4C)O5)cc(C)cc2n1
6. COc1cnc2c(-c3nc4cc(F)c5c(c4s3)C[C@H](CNC(C)=O)O5)cc(C)cc2n1
7. COc1cnc2c(-c3nc4c(C)cc5c(c4s3)OCC(COC(=O)Nc3cnc(C)nc3)O5)cc(C)cc2n1 (stereo not drawn)
8. COc1cnc2c(-c3nc4c(Cl)cc5c(c4s3)OC[C@H](COC(=O)Nc3ccccc3)O5)cc(C)cc2n1

1. 8.49
2. 6.72
3. 7.00
4. 8.01
5. 8.80
6. 6.74
7. 7.54
8. 8.00

====

For each of the compounds below, state its IC50.
Molecular target: PAR4 (Homo sapiens)
Construct: expressed in transfected cells; host or cells: HEK293 PAR4 Clone 1.2A (BMS Arctic ID 383940)
Sequence (Q96RI0 18-385): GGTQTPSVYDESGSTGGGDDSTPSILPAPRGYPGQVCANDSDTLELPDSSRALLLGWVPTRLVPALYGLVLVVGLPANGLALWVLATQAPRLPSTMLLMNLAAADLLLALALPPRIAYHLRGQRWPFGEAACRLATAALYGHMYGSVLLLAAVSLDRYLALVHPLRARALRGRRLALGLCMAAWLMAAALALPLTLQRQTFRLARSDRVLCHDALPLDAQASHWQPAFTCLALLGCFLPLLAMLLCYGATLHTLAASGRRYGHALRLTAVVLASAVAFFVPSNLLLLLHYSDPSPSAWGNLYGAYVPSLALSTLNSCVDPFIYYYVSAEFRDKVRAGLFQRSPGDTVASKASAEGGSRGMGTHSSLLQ
Experiment: PAR4 FLIPR assay (antagonism of agonist peptide-induced calcium mobilization)
Type: cell-based
Answers are plain numbers, in nM.

COc1cnc2c(-c3nc4c(F)cc5c(c4s3)OC(COC(=O)Nc3ccccc3)CO5)cc(C)cc2n1 (stereo not drawn) [Example 24] : 9
COc1cnc2c(-c3nc4c(F)cc5c(c4s3)OC[C@H](COC(=O)Nc3ccc(F)nc3)O5)cc(C)cc2n1 [Example 71] : 2.9

Please look at the following compound next.
Short answer please: IC50, PAR4 (Homo sapiens), entry COc1cnc2c(-c3nc4c(C)cc5c(c4s3)OC[C@H](COC(=O)Nc3ccc(C#N)nc3)O5)cc(C)cc2n1 [Example 38] 1.3

Where do the numbers come from? From patent US11932658B2.
